TARGET_ENTITY: T1, human SEMA4D, full length, on CHO-K1 cells (CHO-K1 hSEMA4D) (human, UniProt Q92854 22-862)
T1 construct: whole, on cells; also called human SEMA4D recombinant cells
T1 sequence (looked up): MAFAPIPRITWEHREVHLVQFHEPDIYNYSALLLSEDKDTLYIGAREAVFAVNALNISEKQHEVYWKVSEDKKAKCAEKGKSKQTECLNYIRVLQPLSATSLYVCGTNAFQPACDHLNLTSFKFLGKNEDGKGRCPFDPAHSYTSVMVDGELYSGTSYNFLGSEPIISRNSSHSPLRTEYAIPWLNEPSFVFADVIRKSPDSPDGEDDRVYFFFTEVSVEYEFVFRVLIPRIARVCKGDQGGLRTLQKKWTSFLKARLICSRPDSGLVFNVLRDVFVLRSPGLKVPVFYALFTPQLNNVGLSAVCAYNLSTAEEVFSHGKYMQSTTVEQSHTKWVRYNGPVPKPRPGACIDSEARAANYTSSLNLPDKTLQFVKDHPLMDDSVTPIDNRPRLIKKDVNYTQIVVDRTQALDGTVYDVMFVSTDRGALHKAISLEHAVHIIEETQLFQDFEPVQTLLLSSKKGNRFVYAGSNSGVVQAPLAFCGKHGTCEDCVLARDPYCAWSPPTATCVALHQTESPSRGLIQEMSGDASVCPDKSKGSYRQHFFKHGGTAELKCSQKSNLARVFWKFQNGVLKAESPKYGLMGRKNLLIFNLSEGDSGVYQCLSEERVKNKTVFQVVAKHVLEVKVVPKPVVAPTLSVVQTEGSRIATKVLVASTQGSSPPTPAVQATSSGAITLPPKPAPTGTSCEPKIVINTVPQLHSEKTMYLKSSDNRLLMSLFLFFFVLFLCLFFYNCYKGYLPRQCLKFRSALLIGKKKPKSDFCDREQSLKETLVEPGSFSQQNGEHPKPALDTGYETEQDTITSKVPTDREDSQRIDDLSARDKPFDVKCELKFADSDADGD
TEST_PROTOCOL: FACS, CHO-K1 hSEMA4D cells; Ab 0.000853 nM
Experimental: The medium was aspirated, the cells were washed once with PBS buffer (purchased from Invitrogen), and then treated with cell dissociation fluid (TrypLE™ Express Enzyme, purchased from Life technology), and the cells were collected. After the cells counted, the cells were washed once with PBS phosphate buffer, and diluted to 3×10⁶ cells per milliliter, and added to the 96-well FACS reaction plate as 100 μL per well. […]
This listing pairs binders with measured MFI.
Please give only the number in your answer, with no unit.

Query string: Report MFI for 42B7G2 (antibody, V domains shown, Mouse monoclonal antibody purified from hybridoma supernatant on protein A) VH: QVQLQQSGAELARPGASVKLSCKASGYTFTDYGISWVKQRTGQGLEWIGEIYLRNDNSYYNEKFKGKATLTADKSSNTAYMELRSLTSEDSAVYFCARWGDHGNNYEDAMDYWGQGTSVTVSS VL: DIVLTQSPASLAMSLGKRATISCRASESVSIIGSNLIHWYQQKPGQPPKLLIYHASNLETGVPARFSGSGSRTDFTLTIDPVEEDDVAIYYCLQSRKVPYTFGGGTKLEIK please.
Result string: 41.2

Query string: Report MFI for 37F11F9 (antibody, V domains shown, Mouse monoclonal antibody purified from hybridoma supernatant on protein A) VH: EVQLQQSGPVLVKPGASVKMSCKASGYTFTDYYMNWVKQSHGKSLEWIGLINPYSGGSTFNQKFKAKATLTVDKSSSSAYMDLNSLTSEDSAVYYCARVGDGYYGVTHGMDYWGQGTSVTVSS VL: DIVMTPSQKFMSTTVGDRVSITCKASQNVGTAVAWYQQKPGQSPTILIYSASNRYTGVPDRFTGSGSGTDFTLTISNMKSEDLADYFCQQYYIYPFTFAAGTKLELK please.
Result string: 38.2

Query string: Report MFI for 31G10C5 (antibody, V domains shown, Mouse monoclonal antibody purified from hybridoma supernatant on protein A) VH: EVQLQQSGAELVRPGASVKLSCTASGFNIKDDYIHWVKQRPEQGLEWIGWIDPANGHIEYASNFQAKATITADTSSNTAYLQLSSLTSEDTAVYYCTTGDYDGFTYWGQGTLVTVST VL: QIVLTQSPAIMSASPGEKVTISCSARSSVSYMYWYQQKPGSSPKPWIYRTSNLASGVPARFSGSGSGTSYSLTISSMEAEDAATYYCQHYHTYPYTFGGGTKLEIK please.
Result string: 47
